Data provenance: PubChem BioAssay AID256

The entries below are paired with their reported T/C.
Test system: CD2F1 mice, L1210 leukemia ip, survival T/C
protocol description: NCI In Vivo Anticancer Drug Screen. Data for tumor model L1210 Leukemia (intraperitoneal) in CD2F1 (CDF1) mice
condition parameters: endpoint: mean survival time; dose: 12.5 mg/kg/injection; schedule: Q04DX003 (ip); vehicle: saline with Tween-80; higher = longer survival
Toxic doses and inconclusive results are not listed.
measurement name: T/C

> print(dat)
                                   molecule  measurement.name    endpoint.value
1  O=S(=O)(F)c1cc(C[P+](c2ccccc2)(c2ccccc2)c2ccccc2)ccc1Cl               T/C  104 % of control
2     O=C(C[n+]1ccc2ccccc2c1)c1ccc2ccccc2c1               T/C   92 % of control
3  O=C(Nc1ccccn1)C(O)C(O)C(O)C(O)CO (configuration not stated)               T/C   96 % of control
4          NC(=O)C(=O)N/N=C/c1ccc2c(c1)CCC2               T/C   97 % of control
5          Cc1c2ccncc2c(C)c2c1[nH]c1ccccc12               T/C  123 % of control
6                  O=C1C=CC(=O)c2c(O)cccc21               T/C   88 % of control
7                          CC[N+](CC)(CC)CC               T/C  100 % of control
